- ASSAY_DETAILS: Kinetic solubility of the compound by dry down method
- Type: physicochemical
- TEST_CONTEXT: read-out: Kinetic_solubility
Documented solubility kinetic across a set of compounds
METRIC: solubility kinetic

> print(dat)
                             chemical.smiles  test.value
 1  NC(=O)c1ccc2c(c1)OCCc1cc(-c3ncnn3CC(F)(F)F)sc1-2    > 200 µM
 2  CC(C)Cn1ncnc1-c1cc2c(s1)-c1ccc(C(N)=O)cc1OCC2    > 200 µM
 3  CC(C)n1ncnc1-c1cc2c(s1)-c1ccc(C(N)=O)cc1OCC2    > 200 µM
 4  NC(=O)c1ccc2c(c1)OCCc1cc(-c3ncnn3CCO)sc1-2    > 200 µM
 5  NC(=O)c1ccc2c(c1)OCCc1cc(-c3ncnn3-c3ccc(F)cc3F)sc1-2    > 200 µM
 6  NC(=O)c1ccc2c(c1)OCCc1cc(-c3ncnn3C3CCC3)sc1-2       37 µM
 7  CC(=O)Nc1nc(-c2cc3c(s2)-c2ncccc2OCC3)c(-c2ccccc2Cl)[nH]1       41 µM
 8  NC(=O)c1ccc2c(c1)OCCc1cc(-c3nnnn3-c3ccccc3Cl)sc1-2    > 200 µM
 9  CC(C)(O)Cn1ncnc1-c1cc2c(s1)-c1ccc(C(N)=O)cc1OCC2    > 200 µM
10  CN(C)CCn1ncnc1-c1cc2c(s1)-c1ccc(C(N)=O)cc1OCC2      128 µM

----------
- EXPERIMENTAL_SYSTEM: Phosphatidylinositol 4,5-bisphosphate 3-kinase catalytic subunit alpha isoform (Homo sapiens)
pIC50: −log10 of the molar value.
Reported pIC50 by item:
METRIC: pIC50

> print(dat)
                            chemical.smiles  test.value
1  CN(C(=O)c1cc2c(s1)-c1ncccc1OCC2)c1ccccc1Cl      < 6.00
2  NC(=O)c1ccc2c(c1)OCCc1cc(-c3ncnn3CCO)sc1-2      < 6.00
3  CN(C(=O)c1cc2c(s1)-c1ccccc1OCC2)c1ccc(F)cc1F      < 6.00

----------
- EXPERIMENTAL_SYSTEM: Phosphatidylinositol 4,5-bisphosphate 3-kinase catalytic subunit alpha isoform (Homo sapiens, UniProt P42336)
- Sequence (P42336 whole entry, canonical isoform): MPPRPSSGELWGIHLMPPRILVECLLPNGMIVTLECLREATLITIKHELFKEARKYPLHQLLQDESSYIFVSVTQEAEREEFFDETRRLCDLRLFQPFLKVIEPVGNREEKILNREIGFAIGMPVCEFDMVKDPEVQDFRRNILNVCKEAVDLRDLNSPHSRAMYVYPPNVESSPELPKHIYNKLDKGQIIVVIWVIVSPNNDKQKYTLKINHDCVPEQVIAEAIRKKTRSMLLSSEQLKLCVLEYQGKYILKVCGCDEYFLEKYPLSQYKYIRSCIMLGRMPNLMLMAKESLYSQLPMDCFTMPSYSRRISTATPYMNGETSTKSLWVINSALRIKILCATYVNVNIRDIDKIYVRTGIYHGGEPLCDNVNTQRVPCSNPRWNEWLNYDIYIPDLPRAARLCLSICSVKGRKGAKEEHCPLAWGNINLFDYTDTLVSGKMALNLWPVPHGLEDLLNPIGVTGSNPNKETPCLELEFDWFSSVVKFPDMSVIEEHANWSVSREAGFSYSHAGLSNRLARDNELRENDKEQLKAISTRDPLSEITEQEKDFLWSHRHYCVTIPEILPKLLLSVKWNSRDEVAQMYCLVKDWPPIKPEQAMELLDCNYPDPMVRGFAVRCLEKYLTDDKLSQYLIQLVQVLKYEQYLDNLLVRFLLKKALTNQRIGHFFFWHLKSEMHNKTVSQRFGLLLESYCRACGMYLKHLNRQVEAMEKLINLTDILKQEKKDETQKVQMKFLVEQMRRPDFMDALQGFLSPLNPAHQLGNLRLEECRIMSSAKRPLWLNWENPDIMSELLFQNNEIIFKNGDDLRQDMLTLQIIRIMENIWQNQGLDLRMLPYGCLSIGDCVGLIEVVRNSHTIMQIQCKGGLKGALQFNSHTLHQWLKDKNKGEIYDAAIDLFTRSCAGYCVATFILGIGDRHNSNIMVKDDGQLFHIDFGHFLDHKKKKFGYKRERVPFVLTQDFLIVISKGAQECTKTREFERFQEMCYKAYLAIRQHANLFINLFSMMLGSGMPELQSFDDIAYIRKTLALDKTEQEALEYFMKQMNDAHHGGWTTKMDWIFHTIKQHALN
- ASSAY_DETAILS: Inhibition of recombinant PI3Kalpha (unknown origin)-mediated 3,4,5-inositoltriphosphate formation after 30 mins by TAMRA-PIP3-based competitive fluorescence polarization assay
METRIC: IC50

> print(dat)
                            chemical.smiles  metric  test.value
1  CC(=O)Nc1nc(-c2cc3c(s2)-c2ncccc2OCC3)c(-c2ccccc2Cl)[nH]1    IC50    < 1.4 nM
2     CC(C)N(C)C(=O)c1cc2c(s1)-c1ccccc1OCC2    IC50   > 2000 nM
3  NC(=O)c1ccc2c(c1)OCCc1cc(-c3nnnn3-c3ccccc3Cl)sc1-2    IC50    < 0.5 nM

----------
Catalogue of IC50 readings, one per entry.
- EXPERIMENTAL_SYSTEM: Phosphatidylinositol 4,5-bisphosphate 3-kinase catalytic subunit alpha isoform (Homo sapiens, UniProt P42336)
- ASSAY_DETAILS: Inhibition of recombinant PI3Kalpha (unknown origin)-mediated 3,4,5-inositoltriphosphate formation after 30 mins by TAMRA-PIP3-based competitive fluorescence polarization assay
METRIC: IC50

> print(dat)
                            chemical.smiles  test.value
1  NC(=O)c1ccc2c(c1)OCCc1cc(-c3nncn3-c3ccccc3Cl)sc1-2    < 0.5 nM
2  NC(=O)c1ccc2c(c1)OCCc1cc(-c3n[nH]c(=O)n3-c3ccccc3Cl)sc1-2    < 0.5 nM
3  Clc1ccccc1-n1cnnc1-c1cc2c(s1)-c1ccccc1OCC2      7.3 nM
4  NC(=O)c1ccc2c(c1)OCCc1cc(-c3ncnn3-c3ccc(F)cc3F)sc1-2    < 0.5 nM
5  NC(=O)c1ccc2c(c1)OCCc1cc(-c3ncnn3CC(F)(F)F)sc1-2        7 nM
6  Nc1nc(-c2cc3c(s2)-c2ccccc2OCC3)c(-c2ccccc2Cl)s1    < 0.5 nM
